# credit: PubChem BioAssay

# assayNotes: human hepatoma cell viability loss – ATP luminescence, cytotoxicity control for P. falciparum antimalarial project, primary screen (AID 2303);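 further: 0% = DMSO wells and 100% = digitonin-killed cells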
# conditionDescription: HepG2 viability, 24-48 h, at 10 µM
The source made the active and inactive calls.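 How the source made its calls: active means inhibition above 50%; inactive means the rest.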
# valid calls are class 1 = active, class 0 = inactive; nothing else

See these solved cases before continuing.
What did this assay record as the result for O=C1c2ccccc2CN1CCCN1CCC(Oc2ccc(F)cc2)CC1 ? class 0

What did this assay record as the result for COC(=O)c1cccc(NC(=O)NCCNc2ccnc(Nc3ccc(F)cc3)n2)c1 ? class 0

What did this assay record as the result for CC(=O)Oc1ccc(C(=O)Oc2ccccc2C#CC#N)cc1OC(C)=O ? class 0

Next compound, please.
What did this assay record as the result for O=C(c1ccc(Br)o1)N1N=C(c2cccs2)CC1c1ccc(Br)cc1 (stereo not given) ? class 0

###

# inhibition annotations
# assayNotes: human hepatoma cell viability loss – ATP luminescence, cytotoxicity control for P. falciparum antimalarial project, primary screen (AID 2303);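 further: 0% = DMSO wells and 100% = digitonin-killed cells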
# conditionDescription: HepG2 viability, 24-48 h, at 10 µM, active compounds read high
Provide the reading as a plain figure in %.

Take a look at these entries with their results.
Tell me the measured inhibition of CCN1CCC(N(CCCCCCCCc2ccc(C(F)(F)F)cc2)C(=O)Cn2c(CCc3cccc(F)c3F)cc(=O)c3ccccc32)CC1 , please. 89

Tell me the measured inhibition of CCn1ccc2c(N3CCCS3(=O)=O)cc(C(=O)N[C@@H](Cc3ccccc3)[C@H](O)CNC(C)(C)c3cccc(OC)c3)cc21 , please. 20

Tell me the measured inhibition of O=C(N[C@@H](Cc1ccccc1)C(=O)O)c1cc(-c2ccc(F)cc2)no1 (tested in a mixture with another compound) , please. -2

Tell me the measured inhibition of N#Cc1ccc(N2CCN(Cc3ccc(-c4cccc(-c5nc6ccccc6[nH]5)c4)cc3)CC2)nc1 , please. 33

Tell me the measured inhibition of CC(C)C(C(=O)Nc1ccc2c(c1)OCO2)c1ccc(Cl)cc1 (centres undefined) , please. 25

Tell me the measured inhibition of COCCNC(=O)c1ccc(OC2CCN(Cc3ccc(F)c(F)c3)CC2)c(Cl)c1 , please. 8

More entries:
Tell me the measured inhibition of CC(=O)Nc1ccc(CN2CCc3ccc(NS(=O)(=O)c4cccc(OCc5ccc(Cl)cc5)c4)cc3CC2)s1 , please. 23

Tell me the measured inhibition of Clc1ccc2c(N3CCCNCC3)ccnc2c1 , please. 11

Tell me the measured inhibition of CCCNC(=O)C1Cc2c([nH]c3cc(Br)ccc23)C2(CCN(CCc3ccccc3)CC2)N1 (centres undefined) , please. 15

###

# assayNotes: antimalarial activity against Dd2 strain (AID 2302);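 further: 0% = DMSO untreated growth and 100% = chloroquine plus artemisinin killed control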
# conditionDescription: P. falciparum Dd2 in RBCs, LDH growth readout, 72 h; at 2 µM; active compounds read high
Rule: growth inhibition of 50% or more gives met; anything lower gives not met.

Is growth inhibition for O=C(Nc1ccc(N2CCNCC2)nc1)c1oc(-c2ccccc2)nc1C(F)(F)F at or above 50%? met

Is growth inhibition for CCOC(=O)c1c(CNc2ccncc2)n(C)c2cc(Br)c(OC(C)=O)cc12 at or above 50%? met

Is growth inhibition for COc1cc(OC)cc(-c2nc3c(C#N)c(OCCN(C)C)ccc3[nH]2)c1 at or above 50%? not met

Is growth inhibition for CO/C(=C\C=C\c1cc2cc(Cl)c(Cl)cc2[nH]1)C(=O)NCCCN1CCN(c2cccc(O)c2)CC1 at or above 50%? met

Is growth inhibition for Oc1ccc(Nc2ccnc3cc(Cl)ccc23)cc1 at or above 50%? met

More entries:
Is growth inhibition for Cc1ccc(Oc2ccc(NC(=O)CNc3ccccc3N3CCCC3=O)cc2)cc1 at or above 50%? met

Is growth inhibition for CC(C)(C)c1ccc(CNCC(C)(C)c2nc(-c3ccc(Cl)c(O)c3)c(-c3ccnc(N)n3)[nH]2)cc1 at or above 50%? met

Is growth inhibition for Cc1cc(C)c(NC(=O)NC2CCN(CCCCCNC(=O)/C=C/c3ccc(Cl)c(Cl)c3)CC2)c(C)c1 at or above 50%? not met

Is growth inhibition for Cc1cc(F)ccc1Nc1nc(N(C)c2ccccc2)c2cc(OCCN(C)C)ccc2n1 at or above 50%? met

Is growth inhibition for O=c1cc(NCCCNC2CCOc3c(I)cc(Cl)cc32)[nH]c2ccccc12 (stereo not given) at or above 50%? not met
